Values from paper PMC9469100

# target_under_test: ΔN(1–60)-PRMT8 (Homo sapiens, UniProt Q9NR22)
# Sequence (Q9NR22 61-394, stated change not applied): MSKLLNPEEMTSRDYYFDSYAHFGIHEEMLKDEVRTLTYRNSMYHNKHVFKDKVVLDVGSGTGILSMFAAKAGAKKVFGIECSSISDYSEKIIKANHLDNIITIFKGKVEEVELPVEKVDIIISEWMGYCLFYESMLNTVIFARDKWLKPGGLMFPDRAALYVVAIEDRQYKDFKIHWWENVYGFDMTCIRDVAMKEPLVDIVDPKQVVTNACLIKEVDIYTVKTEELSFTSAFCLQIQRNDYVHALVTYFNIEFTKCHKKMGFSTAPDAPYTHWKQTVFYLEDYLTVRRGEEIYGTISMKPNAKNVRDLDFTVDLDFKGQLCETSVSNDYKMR
# method_description: Radioisotope-based filter-binding (HotSpot) assay, PRMT8
# cond: read-out: IC50 (μM) PRMT8, 5 μM histone H4, 1 μM 3H-SAM
So I've got a bunch of molecules here, and I need their IC50 values.
Remember to follow the number with its unit.

Output measured IC50 for this item: COC(=O)c1cc(O)c2cc(NC(=O)NCCCCCCCNC(=N)NC[C@H]3O[C@@H](n4cnc5c(N)ncnc54)[C@H](O)[C@@H]3O)ccc2c1 [12e]
5.84 µM

Output measured IC50 for this item: COC(=O)c1cc(O)c2cc(NC(=O)NCCCCNC(=N)NC/C=C/[C@H]3O[C@@H](n4cnc5c(N)ncnc54)[C@H](O)[C@@H]3O)ccc2c1 [12h]
1.95 µM

Output measured IC50 for this item: COC(=O)c1cc(O)c2cc(NC(=O)NCCCCNC(=N)NCCC[C@H]3O[C@@H](n4cnc5c(N)ncnc54)[C@H](O)[C@@H]3O)ccc2c1 [12g]
1.41 µM

###

# target_under_test: PRMT4 (Homo sapiens)
# Sequence (Q86X55 2-608): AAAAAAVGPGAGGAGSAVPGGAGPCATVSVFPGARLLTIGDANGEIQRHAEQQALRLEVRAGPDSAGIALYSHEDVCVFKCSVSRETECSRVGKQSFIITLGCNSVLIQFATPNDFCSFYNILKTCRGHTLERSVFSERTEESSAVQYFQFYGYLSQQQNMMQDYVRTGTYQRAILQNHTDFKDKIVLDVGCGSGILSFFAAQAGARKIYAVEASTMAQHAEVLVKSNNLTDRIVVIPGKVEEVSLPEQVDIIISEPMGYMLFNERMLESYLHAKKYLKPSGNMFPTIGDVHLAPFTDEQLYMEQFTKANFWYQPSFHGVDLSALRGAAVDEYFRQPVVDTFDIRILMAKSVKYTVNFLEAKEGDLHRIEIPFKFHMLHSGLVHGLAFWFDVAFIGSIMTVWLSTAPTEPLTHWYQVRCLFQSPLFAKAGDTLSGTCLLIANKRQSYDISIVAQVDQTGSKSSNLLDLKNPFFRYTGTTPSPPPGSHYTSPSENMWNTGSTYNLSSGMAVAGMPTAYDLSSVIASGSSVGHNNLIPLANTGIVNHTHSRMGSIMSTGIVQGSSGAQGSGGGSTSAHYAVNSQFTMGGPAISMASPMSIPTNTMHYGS
# method_description: Radioisotope-based filter-binding (HotSpot) assay, PRMT4
# cond: ligand efficiency for PRMT4 calculated from IC50 as a surrogate for KD
So I've got a bunch of molecules here, and I need their LE values.
Could you keep your reply to the number by itself?

Output measured LE for this item: COC(=O)c1cc(O)c2cc(NC(=O)NCCCCCNC(=N)NC[C@H]3O[C@@H](n4cnc5c(N)ncnc54)[C@H](O)[C@@H]3O)ccc2c1 [12c]
0.19

Output measured LE for this item: COC(=O)c1cc(O)c2cc(NC(=O)NCCCCNC(=N)NCCC[C@H]3O[C@@H](n4cnc5c(N)ncnc54)[C@H](O)[C@@H]3O)ccc2c1 [12g]
0.24

Output measured LE for this item: COC(=O)c1cc(O)c2cc(NC(=O)NCCCCNC(=N)NCC[C@H]3O[C@@H](n4cnc5c(N)ncnc54)[C@H](O)[C@@H]3O)ccc2c1 [12f]
0.24

Output measured LE for this item: COC(=O)c1cc(O)c2cc(NC(=O)NCCCCCCCNC(=N)NC[C@H]3O[C@@H](n4cnc5c(N)ncnc54)[C@H](O)[C@@H]3O)ccc2c1 [12e]
0.20

###

# target_under_test: UniProt:Q9NVM4
# Sequence (Q9NVM4 2-692): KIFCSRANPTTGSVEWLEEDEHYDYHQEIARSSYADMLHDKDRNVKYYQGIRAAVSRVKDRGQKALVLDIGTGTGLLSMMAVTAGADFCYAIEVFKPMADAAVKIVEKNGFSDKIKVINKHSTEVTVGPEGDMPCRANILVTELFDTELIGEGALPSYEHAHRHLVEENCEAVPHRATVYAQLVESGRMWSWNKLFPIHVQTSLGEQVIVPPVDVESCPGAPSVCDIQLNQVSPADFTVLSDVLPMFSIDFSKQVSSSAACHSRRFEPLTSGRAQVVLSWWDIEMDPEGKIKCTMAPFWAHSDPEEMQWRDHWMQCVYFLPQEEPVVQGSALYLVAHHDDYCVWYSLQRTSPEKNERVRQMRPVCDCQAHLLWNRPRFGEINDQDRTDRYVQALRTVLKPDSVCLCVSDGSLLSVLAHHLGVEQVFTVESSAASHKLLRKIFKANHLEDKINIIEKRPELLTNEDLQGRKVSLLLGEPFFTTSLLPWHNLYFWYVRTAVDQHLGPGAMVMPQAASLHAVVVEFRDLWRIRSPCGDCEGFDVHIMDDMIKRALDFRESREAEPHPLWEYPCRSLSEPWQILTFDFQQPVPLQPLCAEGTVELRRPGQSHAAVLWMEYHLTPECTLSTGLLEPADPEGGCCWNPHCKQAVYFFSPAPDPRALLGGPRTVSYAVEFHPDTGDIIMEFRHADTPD
# method_description: Radioisotope-based filter-binding (HotSpot) assay, PRMT7
# cond: read-out: IC50 (μM) PRMT7; radioisotope-based filter assay; 5 μM GST-GAR; 1 μM 3H-SAM
So I've got a bunch of compounds here, and I need their IC50 values.
// return numeric value only (unit: µM, not printed)

Report its IC50 with UniProt:Q9NVM4 as the test system: COC(=O)c1cc(O)c2cc(NC(=O)NCCCCNC(=N)NCC[C@H]3O[C@@H](n4cnc5c(N)ncnc54)[C@H](O)[C@@H]3O)ccc2c1 [12f]
0.226

Report its IC50 with UniProt:Q9NVM4 as the test system: COC(=O)c1cc(O)c2cc(NC(=O)NCCCCCNC(=N)NC[C@H]3O[C@@H](n4cnc5c(N)ncnc54)[C@H](O)[C@@H]3O)ccc2c1 [12c]
0.22

Report its IC50 with UniProt:Q9NVM4 as the test system: COC(=O)c1cc(O)c2cc(NC(=O)NCCCCNC(=N)NC[C@H]3O[C@@H](n4cnc5c(N)ncnc54)[C@H](O)[C@@H]3O)ccc2c1 [12b]
0.55
